src = patent US20050004126A1

- system: MMP-13CD (catalytic domain of collagenase 3) (Homo sapiens, UniProt P45452)
- test description: Thiopeptolide hydrolysis assay, MMP-13
- applied conditions: MMP13 IC50 μM, Table IVb
measured endpoint: IC50 (µM)

> print(dat)
                                   compound  unit.spec  recorded.result
1  COc1ccc(CNC(=O)c2ccc3c(c2)c(=O)n(Cc2ccc(C(=O)N(C)C)cc2)c(=O)n3C)cc1         µM            0.012
2  COc1ccc(CNC(=O)c2ccc3c(c2)c(=O)n(Cc2ccc(C(=O)OCOC(=O)C(NC(=O)C(N)C(C)C)C(C)C)cc2)c(=O)n3C)cc1 (stereo not drawn)         µM            0.039
3  COc1ccc(CNC(=O)c2ccc3c(c2)c(=O)n(Cc2cccnc2)c(=O)n3C)cc1         µM            0.046
4  Cn1c(=O)n(Cc2ccc(C(=O)O)cc2)c(=O)c2cc(C(=O)NCc3ccncc3)ccc21         µM           0.0057
5  COc1ccc(CNC(=O)c2ccc3c(c2)c(=O)n(Cc2ccc(C(=O)OCC(=O)OC(C)(C)C)cc2)c(=O)n3C)cc1         µM            0.088
6  COC(=O)c1cccc(Cn2c(=O)c3cc(C(=O)NCc4ccc(OC)cc4)ccc3n(C)c2=O)c1         µM             0.12

P = CCn1c(=O)n(Cc2cccc(F)c2)c(=O)c2cc(C(=O)NCc3ccncc3)ccc21
Q = Cn1c(=O)n(Cc2cccc(F)c2)c(=O)c2cc(C(=O)NCc3cccnc3)ccc21
R = Cn1c(=O)n(Cc2ccccc2)c(=O)c2cc(C(=O)NCc3ccc4c(c3)OCO4)ncc21
rank_up(items): orders items by reported IC50 in ascending numerical order. Answer by writing out the labels in the requested order.
R, Q, P
(R: 0.00078 µM, Q: 0.067 µM, P: 0.1 µM)

----------
- system: MMP-13CD (catalytic domain of collagenase 3) (Homo sapiens)
- test description: biochemical
pIC50: −log10 of the molar value.
measured endpoint: pIC50

> print(dat)
                                   compound  recorded.result
1  COc1cc(CNC(=O)c2ccc3c(c2)c(=O)n(Cc2ccccc2)c(=O)n3C)ccc1O [Synthesis Example 25]             7.29

A = O=C(OCc1ccncc1)c1ccc2[nH]c(=O)n(Cc3cccs3)c(=O)c2c1 [Synthesis Example 47]
B = Cc1ccc(CNC(=O)c2ccc3[nH]c(=O)n(Cc4ccccc4)c(=O)c3c2)cc1
Param metric = pIC50; output whichever of A , B has the minimum value. Answer by quoting the chosen item's label.
B

----------
- system: MMP-13CD (catalytic domain of collagenase 3) (Homo sapiens, UniProt P45452)
- test description: Thiopeptolide hydrolysis assay, MMP-13
- applied conditions: MMP13 IC50 (nM), Table II
measured endpoint: IC50 (nM)

> print(dat)
                               smiles.input  unit.spec  recorded.result
1  O=C(Nc1cccc(CO)c1)c1cccc(C(=O)Nc2cccc(CO)c2)c1         nM             7800
2  COc1ccc(COC(=O)c2cccc(C(=O)OCc3ccc(OC)cc3)c2)cc1         nM             1080
3  COc1cccc(CNC(=O)c2ccc(OC)c(C(=O)NCc3cccc(OC)c3)c2)c1         nM              180
4  O=C(OCc1cccc(F)c1)c1cccc(C(=O)OCc2cccc(F)c2)c1         nM             7830

A = CC(=O)Nc1ccc(C(=O)NCc2ccc3c(c2)OCO3)cc1C(=O)NCc1ccc2c(c1)OCO2
B = O=C(OCc1ccc2c(c1)OCO2)c1cccc(C(=O)OCc2ccc3c(c2)OCO3)c1
C = COc1cccc(CNC(=O)c2cccc(C(=O)NCc3ccc(C)cc3)c2)c1
rank_up(items): orders items by reported IC50 in ascending numerical order. Answer by writing out the labels in the requested order.
C, B, A

----------
- system: MMP-13CD (catalytic domain of collagenase 3) (Homo sapiens, UniProt P45452)
- test description: Thiopeptolide hydrolysis assay, MMP-13
- applied conditions: MMP13 IC50 μM, Table IVb
measured endpoint: IC50 (µM)

> print(dat)
                                   molecule  measured.endpoint  recorded.result
1  COc1ccc(Cn2c(=O)c3cc(C(=O)NCc4ccncc4)ccc3n(C)c2=O)cc1               IC50             0.06

I = COc1ccc(CNC(=O)c2ccc3c(c2)c(=O)n(CCN2CCOCC2)c(=O)n3C)cc1
II = COc1ccc(CNC(=O)c2ccc3c(c2)c(=O)n(Cc2ccc([N+](=O)[O-])cc2)c(=O)n3C)cc1
III = COc1ccc(CNC(=O)c2ccc3c(c2)c(=O)n(CC2CCCN(C)C2)c(=O)n3C)cc1 (centres unmarked)
IV = COc1ccc(CNC(=O)c2ccc3c(c2)c(=O)n(Cc2ccc(C#N)cc2)c(=O)n3C)cc1
Arrange these molecules by their IC50, starting with the largest number. Answer by writing out the labels in the requested order.
I, III, II, IV

----------
- system: MMP-13CD (catalytic domain of collagenase 3) (Homo sapiens)
- test description: Thiopeptolide hydrolysis assay, MMP-13
- applied conditions: MMP13 IC50 μM, Table IVb
measured endpoint: IC50 (µM)

> print(dat)
                               smiles.input  measured.endpoint  recorded.result
1  COc1ccc(CNC(=O)c2ccc3c(c2)c(=O)n(Cc2ccc(C(=O)O)c(F)c2)c(=O)n3C)cc1               IC50            0.001

I = Cn1c(=O)c2cc(C(=O)NCc3ccc4c(c3)OCO4)cnc2n(C)c1=O
II = Cn1c(=O)n(Cc2ccc(C(=O)O)cc2)c(=O)c2cc(C(=O)NCc3ccc4c(c3)OCO4)ccc21
III = COC(=O)c1ccc(Cn2c(=O)c3cc(C(=O)NCc4ccc(SC)cc4)ccc3n(C)c2=O)cc1
IV = COc1ccc(CNC(=O)c2ccc3c(c2)c(=O)n(Cc2ccc(-c4ccccc4C(=O)O)cc2)c(=O)n3C)cc1
Arrange these compounds by their IC50, starting with the largest number. Answer by writing out the labels in the requested order.
I, III, IV, II
(I: 3.85 µM, III: 0.023 µM, IV: 0.013 µM, II: 0.0009 µM)

----------
- system: MMP-3CD (catalytic domain of stromelysin) (Homo sapiens)
- test description: Thiopeptolide hydrolysis assay, MMP-3
- Format: biochemical
- applied conditions: Table VI, synthesis examples; read-out: MMP03
pIC50: −log10 of the molar value.
measured endpoint: pIC50

For CN1C(=O)N(Cc2ccccc2)S(=O)(=O)c2cc(C(=O)NCc3ccccc3)ccc21 [compound 63] , what is its reported pIC50?
< 4.52

----------
- system: MMP-13CD (catalytic domain of collagenase 3) (Homo sapiens, UniProt P45452)
- test description: Thiopeptolide hydrolysis assay, MMP-13;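 further: inhibition of enzymatic thiopeptolide substrate cleavage (100 µM) in pH 6.0 MES buffer with CaCl2 and DTNB, comparing hydrolysis with versus without inhibitor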
- applied conditions: MMP13 IC50 (μM), Table 1b
Where a name gives a salt, the structure may show the parent alone.
measured endpoint: IC50 (µM)

> print(dat)
                                   molecule                                    system  unit.spec  recorded.result
1  Cc1c(=O)n(Cc2ccc(Br)cc2)c(=O)n2cc(C(=O)NCc3ccncc3)sc12 [hydrochloride]  MMP-13CD (catalytic domain of collagenase 3) (Homo sapiens, UniProt P45452)         µM           0.0365

1 = CC#CCn1c(=O)c(C)c2sc(C(=O)NCc3ccc(F)cc3)cn2c1=O
2 = Cc1c(=O)n(CCS(=O)(=O)c2ccc(F)cc2)c(=O)n2cc(C(=O)NCc3ccc(F)cc3)sc12
3 = COC(=O)c1nc(Cn2c(=O)c(C)c3sc(C(=O)NCc4ccc(F)cc4)cn3c2=O)ncc1OC
4 = COc1ccc(CNC(=O)c2cn3c(=O)n(Cc4ccccc4)c(=O)c(C)c3s2)cn1 [hydrochloride]
5 = Cc1c(=O)n(Cc2ccc3cc(F)ccc3n2)c(=O)n2cc(C(=O)NCc3ccc(F)cc3)sc12
rank_up(items): orders items by reported IC50 in ascending numerical order. Answer by writing out the labels in the requested order.
4, 5, 1, 2, 3

----------
- system: MMP-3CD (catalytic domain of stromelysin) (Homo sapiens, UniProt P08254)
- Sequence (P08254 100-272 limits assumed): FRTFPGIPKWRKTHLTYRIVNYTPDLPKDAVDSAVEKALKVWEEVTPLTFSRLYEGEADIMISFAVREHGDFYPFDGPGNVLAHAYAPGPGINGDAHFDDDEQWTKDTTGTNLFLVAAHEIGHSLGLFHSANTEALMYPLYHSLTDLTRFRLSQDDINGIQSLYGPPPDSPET
- test description: Thiopeptolide hydrolysis assay, MMP-3;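 further: inhibition of thiopeptolide substrate (100 µM) cleavage by the MMP-3 catalytic domain, detected with DTNB at pH 6.0 with CaCl2, hydrolysis compared against runs lacking inhibitor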
- Format: biochemical
- applied conditions: MMP03 IC50 (nM), Table II
measured endpoint: IC50

For COc1ccc(CNC(=O)c2cccc(C(=O)NCc3ccc4c(c3)OCO4)c2)cc1 , what is its reported IC50?
> 100000 nM
